- Test system: mice
- TEST_SUMMARY: SmartCube in vivo neuropharmacological behavioral assay
- APPLIED_CONDITIONS: SmartCube, i.p. 15 min before test, result at the MED
Structures can show the parent of a compound that is named as a salt.
EXPERIMENTAL_ENDPOINT: AG: analgesic (percent probability)

# annotated cases, reported AG: analgesic (percent probability) shown
compound=c1ccc2c(c1)C1CCCC2N1 experimental_endpoint="AG: analgesic (percent probability)" assay_value="++ (5% ≤ X < 25%)"
compound="c1ccc2c(c1)C1CCCC2N1C1CC1 [Compound 15, hydrochloride]" experimental_endpoint="AG: analgesic (percent probability)" assay_value="++ (5% ≤ X < 25%)"
compound=CC(C)CN1C2CCCC1c1ccccc12 experimental_endpoint="AG: analgesic (percent probability)" assay_value="+ (LOQ ≤ X < 5%)"
compound=CC(C)N1C2CCCC1c1cc(F)c(F)cc12 experimental_endpoint="AG: analgesic (percent probability)" assay_value="++ (5% ≤ X < 25%)"

IN: Kindly state the measured AG: analgesic (percent probability) obtained for CC(C)N1C2CCC(O)C1c1ccccc12 (stereo not drawn) [Compound 27, hydrochloride] with mice.
OUT: ++ (5% ≤ X < 25%)

IN: Provide the documented AG: analgesic (percent probability) with mice as the system for CCC(C)N1C2CCCC1c1ccccc12 (stereo not drawn)
OUT: + (LOQ ≤ X < 5%)
